Assay: Oral bioavailability in human
Settings: in vivo, F
Measured bioavailability by item

>  <compound>
CCCc1cc(=O)[nH]c(=S)[nH]1

>  <bioavailability / %>
78

$$$$
>  <compound>
C[C@@H](CN1CCN(CCOCCO)CC1)CN1c2ccccc2Sc2ccccc21

>  <bioavailability / %>
10

$$$$
>  <compound>
CCCCC(=O)O[C@H]1CC[C@H]2[C@@H]3CCc4cc(O)ccc4[C@H]3CC[C@]12C [ESTRADIOL VALERATE]

>  <bioavailability / %>
3

$$$$
>  <compound>
CCC1(c2ccccc2)C(=O)NCNC1=O

>  <bioavailability / %>
92

$$$$
>  <compound>
CC(C)NC[C@@H](O)COc1ccc(OCCOCC2CC2)cc1

>  <bioavailability / %>
100

$$$$
>  <compound>
CC1(C)S[C@@H]2[C@H](NC(=O)Cc3ccccc3)C(=O)N2[C@H]1C(=O)O

>  <bioavailability / %>
22.5

$$$$
>  <compound>
CCN(CC)CC(O)CNC(=O)c1c(OC)c2ccccc2n1-c1ccccc1 (stereo not given)

>  <bioavailability / %>
70

$$$$
>  <compound>
Clc1cccc(Cl)c1N=C1NCCN1

>  <bioavailability / %>
60

$$$$
>  <compound>
Nc1nc(NC2CC2)c2ncn([C@H]3C=C[C@@H](CO)C3)c2n1 (single isomer, unassigned)

>  <bioavailability / %>
86

$$$$
>  <compound>
COc1ccc([C@@H]2Sc3ccccc3N(CCN(C)C)C(=O)[C@@H]2OC(C)=O)cc1

>  <bioavailability / %>
40

$$$$
>  <compound>
O=C(c1ccc(OCCN2CCCCC2)cc1)c1c(-c2ccc(O)cc2)sc2cc(O)ccc12

>  <bioavailability / %>
2

$$$$
>  <compound>
Cn1c(=O)c2c(ncn2C)n(C)c1=O

>  <bioavailability / %>
100

$$$$
>  <compound>
COc1ccc2nc([S@@+]([O-])Cc3ncc(C)c(OC)c3C)[nH]c2c1

>  <bioavailability / %>
90

$$$$
>  <compound>
CO/N=C1\CN(c2nc3c(cc2F)c(=O)c(C(=O)O)cn3C2CC2)CC1CN (stereo not given)

>  <bioavailability / %>
71

$$$$
>  <compound>
C[C@H](C(=O)O)c1ccc(C(=O)c2cccs2)cc1 [(S)-SUPROFEN]

>  <bioavailability / %>
92

$$$$
>  <compound>
CCCC1O[C@@H]2C[C@H]3[C@@H]4CCC5=CC(=O)C=C[C@]5(C)[C@H]4[C@@H](O)C[C@]3(C)[C@]2(C(=O)CO)O1 (stereo not given in full) [BUDESONIDE]

>  <bioavailability / %>
11

$$$$
>  <compound>
C[C@H](C(=O)O)c1ccc(-c2ccccc2)c(F)c1

>  <bioavailability / %>
92

$$$$
>  <compound>
Cc1cccc(C)c1OC[C@@H](C)N [(R)-MEXILETINE]

>  <bioavailability / %>
87

$$$$
>  <compound>
CNC(=C[N+](=O)[O-])NCCSCc1csc(CN(C)C)n1

>  <bioavailability / %>
70

$$$$
>  <compound>
Cc1cn([C@H]2C=C[C@@H](CO)O2)c(=O)[nH]c1=O

>  <bioavailability / %>
82

$$$$
>  <compound>
CC(C)Nc1cccnc1N1CCN(C(=O)c2cc3cc(NS(C)(=O)=O)ccc3[nH]2)CC1

>  <bioavailability / %>
96

$$$$
>  <compound>
N/N=c1/cc2c(n[nH]1)CCN(C(=O)c1ccccc1)C2

>  <bioavailability / %>
75

$$$$
>  <compound>
COc1ccccc1Oc1c(NS(=O)(=O)c2ccc(C(C)(C)C)cc2)nc(-c2ncccn2)nc1OCCO

>  <bioavailability / %>
50

$$$$
>  <compound>
COc1ccc(OC)c([C@@H](O)CNC(=O)CN)c1 [(R)-MIDODRINE]

>  <bioavailability / %>
93

$$$$
>  <compound>
Cc1onc(-c2ccccc2Cl)c1C(=O)N[C@@H]1C(=O)N2[C@@H]1SC(C)(C)[C@@H]2C(=O)O

>  <bioavailability / %>
37

$$$$

---

Measured bioavailability by item
Test: Oral bioavailability in human
Conditions: in vivo, F
value-type: bioavailability (%)

>  <molecule>
C=CC[C@@H]1/C=C(\C)C[C@H](C)C[C@H](OC)[C@H]2O[C@@](O)(C(=O)C(=O)N3CCCC[C@H]3C(=O)O[C@H](/C(C)=C/[C@@H]3CC[C@@H](O)[C@H](OC)C3)[C@H](C)[C@@H](O)CC1=O)[C@H](C)C[C@@H]2OC [TACROLIMUS ANHYDROUS]

>  <u>
%

>  <data-value>
17

$$$$
>  <molecule>
CC[C@H]1OC(=O)[C@H](C)C(=O)[C@H](C)[C@@H](O[C@@H]2O[C@H](C)C[C@H](N(C)C)[C@H]2O)[C@](C)(OC)C[C@@H](C)C(=O)[C@H](C)[C@H]2N(CCCCn3cnc(-c4cccnc4)c3)C(=O)O[C@]12C

>  <u>
%

>  <data-value>
57

$$$$
>  <molecule>
CN(C)c1ccc(O)c2c1C[C@H]1C[C@H]3[C@H](N(C)C)C(O)=C(C(N)=O)C(=O)[C@@]3(O)C(O)=C1C2=O

>  <u>
%

>  <data-value>
97.5

$$$$
>  <molecule>
CCCc1nn(C)c2c(=O)[nH]c(-c3cc(S(=O)(=O)N4CCN(C)CC4)ccc3OCC)nc12

>  <u>
%

>  <data-value>
40

$$$$
>  <molecule>
C=C[C@H]1C[N@@]2CC[C@H]1C[C@@H]2[C@@H](O)c1ccnc2ccc(OC)cc12

>  <u>
%

>  <data-value>
75

$$$$
>  <molecule>
CCOc1nc2cccc(C(=O)O)c2n1Cc1ccc(-c2ccccc2-c2nnn[nH]2)cc1

>  <u>
%

>  <data-value>
15

$$$$
>  <molecule>
CC1(C)O[C@@H]2C[C@H]3[C@@H]4C[C@H](F)C5=CC(=O)C=C[C@]5(C)[C@H]4[C@@H](O)C[C@]3(C)[C@]2(C(=O)CO)O1 [FLUNISOLIDE]

>  <u>
%

>  <data-value>
20

$$$$

---

Experiment: Oral bioavailability in human
Settings: in vivo
value-type: bioavailability (%)

>  <compound>
CC(C)C[C@H]1C(=O)N2CCC[C@H]2[C@]2(O)O[C@](NC(=O)[C@@H]3C=C4c5cccc6[nH]c(Br)c(c56)C[C@H]4N(C)C3)(C(C)C)C(=O)N12

>  <value-type>
bioavailability

>  <data-value>
4.5

$$$$
>  <compound>
C=CCN1CC[C@]23c4c5ccc(O)c4O[C@H]2C(=O)CC[C@@]3(O)[C@H]1C5

>  <value-type>
bioavailability

>  <data-value>
2

$$$$
>  <compound>
O=C1Nc2ccc(Cl)cc2C(c2ccccc2Cl)=N[C@@H]1O [(R)-LORAZEPAM]

>  <value-type>
bioavailability

>  <data-value>
93

$$$$

---

Test: Oral bioavailability in human
Conditions: in vivo

>  <molecule>
OCCN1CCN(CCCN2c3ccccc3Sc3ccc(C(F)(F)F)cc32)CC1

>  <bioavailability>
2.7%

$$$$
>  <molecule>
C[C@@H]1O[C@@H](O[C@@H]2C=C3CC[C@@H]4[C@H](CC[C@]5(C)[C@@H](c6ccc(=O)oc6)CC[C@]45O)[C@@]3(C)CC2)[C@H](O)[C@H](O)[C@H]1O

>  <bioavailability>
7%

$$$$
>  <molecule>
C[N+]1(CC2CC2)[C@@H]2C[C@@H](OC(=O)[C@H](CO)c3ccccc3)C[C@H]1[C@@H]1O[C@@H]12.[Br-] (some centres undefined) [CIMETROPIUM BROMIDE]

>  <bioavailability>
2%

$$$$
>  <molecule>
COc1ccc2c3c1O[C@H]1[C@@H](O)C=C[C@H]4[C@@H](C2)N(C)CC[C@@]341

>  <bioavailability>
55%

$$$$

---

Measured bioavailability by item
Test: Oral bioavailability in human
Conditions: in vivo, F
value-type: bioavailability (%)

>  <compound>
COc1cc2ncnc(Nc3ccc(F)c(Cl)c3)c2cc1OCCCN1CCOCC1

>  <value-type>
bioavailability

>  <data-value>
60

$$$$
>  <compound>
CNCC[C@@H](Oc1ccccc1C)c1ccccc1

>  <value-type>
bioavailability

>  <data-value>
63

$$$$
>  <compound>
CC[C@H]1OC(=O)[C@H](C)[C@@H](O[C@H]2C[C@@](C)(OC)[C@@H](O)[C@H](C)O2)[C@H](C)[C@@H](O[C@@H]2O[C@H](C)C[C@H](N(C)C)[C@H]2O)[C@](C)(O)C[C@@H](C)C(=O)[C@H](C)[C@@H](O)[C@]1(C)O

>  <value-type>
bioavailability

>  <data-value>
35

$$$$
>  <compound>
COc1ccc(CCN(C)CCC[C@@](C#N)(c2ccc(OC)c(OC)c2)C(C)C)cc1OC

>  <value-type>
bioavailability

>  <data-value>
13.5

$$$$
>  <compound>
CN(C)CCC[C@@]1(c2ccc(F)cc2)OCc2cc(C#N)ccc21

>  <value-type>
bioavailability

>  <data-value>
80

$$$$
>  <compound>
C[C@@H]1C[C@H]2[C@@H]3C[C@H](F)C4=CC(=O)C=C[C@]4(C)[C@H]3[C@@H](O)C[C@]2(C)[C@H]1C(=O)CO

>  <value-type>
bioavailability

>  <data-value>
83.5

$$$$
>  <compound>
Cc1ccsc1C(=CCCN1CCCC(C(=O)O)C1)c1sccc1C (single isomer, unassigned)

>  <value-type>
bioavailability

>  <data-value>
90

$$$$
>  <compound>
CCN(CC)CCNC(=O)c1ccc(N)cc1 [PROCAINAMIDE]

>  <value-type>
bioavailability

>  <data-value>
83

$$$$
>  <compound>
CC[C@H](C)C(=O)O[C@H]1C[C@H](O)C=C2C=C[C@H](C)[C@H](CC[C@@H](O)C[C@@H](O)CC(=O)O)[C@H]21

>  <value-type>
bioavailability

>  <data-value>
17

$$$$
